Please provide measured Cmax for the entries that follow.
measurement protocol: in vivo
Design: species or system cynomolgus monkeys
particulars: both sexes, cynomolgus monkey, po, 300 mg
Starred links: 1 amine or outer side, 2 acyl side, 3 side chain; linkers in the order of their positions; H or OH if unused. Non-standard residues stand in square brackets, D forms with d. Groups on a side chain read outwards from the residue. *: point of attachment. C18 diacid = O=C(O)CCCCCCCCCCCCCCCCC(=O)*; αMePhe(2-F) = C[C@](N)(Cc1ccccc1F)C(=O)O; γGlu = O=C(O)[C@H](CCC(=O)[*:2])N[*:1]; αMe4Pal = C[C@](N)(Cc1ccncc1)C(=O)O; αMeY = C[C@](N)(Cc1ccc(O)cc1)C(=O)O; 4Pal = N[C@@H](Cc1ccncc1)C(=O)O; αMeL = CC(C)C[C@](C)(N)C(=O)O; αMeS = C[C@](N)(CO)C(=O)O; Orn = NCCC[C@H](N)C(=O)O; AEEA = NCCOCCOCC(=O)O; Aib = CC(C)(N)C(=O)O
# unit: nM | format: bare number

Data request: Look up Cmax: H-Y[Aib]QGT[αMePhe(2-F)]TSD[4Pal]SILLDKK([γGlu-γGlu-C18 diacid])AQ[Aib]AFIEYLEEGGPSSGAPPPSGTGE-NH2 [Example 510]
Data returned: 126

Data request: Look up Cmax: H-Y[Aib]QGT[αMePhe(2-F)]TSD[4Pal][αMeS]I[αMeL]LD[Orn]K([AEEA-γGlu-C18 diacid])AQ[αMe4Pal]EFI[dE][αMeY]LIEGGPSSGAPPPSGSE-NH2 [Example 712]
Data returned: 124

Data request: Look up Cmax: H-Y[Aib]QGT[αMePhe(2-F)]TSD[4Pal][αMeS]I[αMeL]LD[Orn]K([AEEA-γGlu-C18 diacid])AQ[αMe4Pal]EFI[dE][αMeY]LVEGGPSSGAPPPSGS-NH2 [Example 694]
Data returned: 353

Data provenance is patent US20240270821A1.
